Read-out: Heat shock 70 kDa protein 1 (HSPA1A), gene 3303
Assay: LTEA_HepaRG_HSPA1A: Life Technologies and Expression Analysis (LTEA) Assay for Heat shock 70 kDa protein 1 (HSPA1A) using HepaRG (AID 2283502)
Settings: mRNA level, 48 h; actives raise or lower the signal
Protocol: LTEA_HepaRG is a cell based, multiplexed-readout assay that uses HepaRG, a human liver cell line, with measurements taken at 48 hours after chemical dosing on a 96-well plate.LTEA_HepaRG_HSPA1A is one of 102 assay component(s) measured in the LTEA HepaRG cell culture assay. It is a marker of Oxidative Stress.Data from the assay component LTEA_HepaRG_HSPA1A was analyzed into 1 endpoint. […]
The source made the active and inactive calls. How the source made its calls: active means hit-call score of the fitted dose curve at least 0.9, where 1 is the maximum; inactive means score below 0.9.
Your response should consist of one outcome taken from T for active, F for inactive

Some entries whose results are on file:
| compound | label value |
| --- | --- |
| CCCCN1C(=O)[C@@H]([C@H](O)C2CCCCC2)NC(=O)C12CCN(Cc1ccc(Oc3ccc(C(=O)O)cc3)cc1)CC2 | T |
| OC[C@H]1O[C@@](CO)(O[C@H]2O[C@H](CO)[C@@H](O)[C@H](O)[C@H]2O)[C@@H](O)[C@@H]1O | F |
| c1ccc(C(O[C@@H]2CCCN(CCc3ccc4c(c3)OCO4)C2)c2ccccc2)cc1 | T |

Exercise: What classification did Cn1c(=O)c2[nH]cnc2n(C)c1=O end up with in this test?
Solution: F

Exercise: What classification did CC(C)CCCCCCOC(=O)C1CCCCC1C(=O)OCCCCCCC(C)C (configuration not stated) end up with in this test?
Solution: F

* * *

assay: ATG_VDRE_CIS: Attagene CIS-FACTORIAL HepG2 Assay for human Vitamin D Receptor Element (VDRE) (AID 2282968); conditions: HepG2 VDRE cis-reporter transcription, actives raise or lower the signal
Activity calls are given as the source filed them. Rule for the calls: active = hit-call score of the fitted dose curve at least 0.9, where 1 is the maximum; inactive = score below 0.9.
Your response should consist of one outcome taken from 1 (active), 0 (inactive)

Some entries whose results are on file:
| molecule | label value |
| --- | --- |
| NCC(F)(F)C(F)(F)C(F)(F)C(F)(F)F | 0 |
| OCc1ccccc1 | 0 |
| OC(CCl)CCl | 0 |
| OCCOCCOCCO | 0 |
| CC(C)CC(C)O (stereo not drawn) | 0 |

Exercise: What classification did O=S(=O)(O)CCC(F)(F)C(F)(F)C(F)(F)C(F)(F)C(F)(F)C(F)(F)F end up with in this test?
Solution: 0

Exercise: What classification did Cc1ncc([C@@H](CCCCCCc2ccc3c(n2)NCCC3)CC(=O)O)cn1 end up with in this test?
Solution: 0

Exercise: What classification did CC[C@H](C)C(=O)O[C@H]1C[C@H](O)C=C2C=C[C@H](C)[C@H](CC[C@@H](O)C[C@@H](O)CC(=O)O)[C@H]21 end up with in this test?
Solution: 0

Exercise: What classification did C=CCc1cc(S(=O)(=O)c2ccc(O)c(CC=C)c2)ccc1O end up with in this test?
Solution: 1

Exercise: What classification did CCCCCCCCCCCCCCCCOS(=O)(=O)O end up with in this test?
Solution: 0

Exercise: What classification did OC(O)(C(F)C(O)(O)C(F)(F)F)C(F)(F)F end up with in this test?
Solution: 0

Exercise: What classification did CCCCC(CC)C(=O)OCCOCCOCCOC(=O)C(CC)CCCC (stereo not drawn) end up with in this test?
Solution: 1

Exercise: What classification did CCOc1ccc2[nH]cc(C(=O)NCc3ccccc3)c(=O)c2n1 end up with in this test?
Solution: 1
